Reported pIC50 values for the following molecules.
# Experimental system: human MRGPRX2 (Homo sapiens)
# Construct: expressed in transfected cells
# Sequence (Q96LB1 whole entry): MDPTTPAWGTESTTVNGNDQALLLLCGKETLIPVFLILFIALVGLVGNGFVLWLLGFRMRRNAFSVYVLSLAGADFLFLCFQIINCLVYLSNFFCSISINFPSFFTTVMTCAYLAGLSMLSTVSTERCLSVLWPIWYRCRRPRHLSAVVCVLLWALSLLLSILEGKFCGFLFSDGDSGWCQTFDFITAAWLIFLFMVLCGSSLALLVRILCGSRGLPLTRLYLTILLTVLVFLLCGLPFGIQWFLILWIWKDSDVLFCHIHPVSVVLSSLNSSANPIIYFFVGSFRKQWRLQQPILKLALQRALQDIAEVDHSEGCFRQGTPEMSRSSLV
# Method notes: MRGPRX2 antagonist activity, IP-One HTRF assay in CHO cells expressing human MRGPRX2 versus Cortistatin-14
# Assay type: cell-based
# Settings: CHO cells stably expressing human MRGPRX2; versus 0.3 uM Cortistatin-14 agonist; IP-1 HTRF readout; read-out: MRGPR2 Antagonist Activity
pIC50: −log10 of the molar value.

IN: State its pIC50 for this molecule: COc1ccc(C(=O)N[C@H]2CC[C@@H](Nc3cc(C(F)(F)F)nc(N(C)C(C)C)n3)CC2)cc1
OUT: 5.60 to 6.00

IN: Identify measured pIC50 associated with CNc1cc(C(=O)N[C@H]2CC[C@@H](Nc3ccc(C#N)c(C(F)(F)F)c3)CC2)ccn1
OUT: > 7.00

IN: Supply measured pIC50 of COc1ccc(C(=O)N[C@H]2CC[C@@H](Nc3cc(Nc4cccc(C)c4)nc(C(F)(F)F)c3)CC2)cc1 in your reply.
OUT: 5.60 to 6.00

IN: Please give measured pIC50 of the following entry: N#Cc1ccc(N[C@H]2CC[C@@H](NC(=O)c3c[nH]c4ccncc34)CC2)cc1C(F)(F)F
OUT: > 7.00

IN: Consider the molecule O=C(N[C@H]1CC[C@@H](Nc2cc(C(F)(F)F)nc(C(F)(F)F)c2)CC1)c1ccc(-n2ccnc2)cc1 . State its measured pIC50.
OUT: 6.30 to 7.00

IN: Return value of pIC50 for input CN(C)c1nc(N[C@H]2CC[C@@H](NC(=O)c3ccc(F)cc3)CC2)cc(C(F)(F)F)n1 , no commentary.
OUT: 6.00 to 6.30

IN: Return reported pIC50. Input molecule: CN(C)c1nc(N[C@H]2CC[C@@H](NC(=O)c3ccccc3)CC2)cc(C(F)(F)F)n1
OUT: 6.00 to 6.30

IN: Provide one value: measured pIC50 of CN1CCCc2cccc(C(=O)N[C@H]3CC[C@@H](Nc4cc(C(F)(F)F)nc(C(F)(F)F)c4)CC3)c21
OUT: 5.60 to 6.00

IN: Could you please provide reported pIC50 for CNc1ccc(C(=O)N[C@H]2CC[C@@H](Nc3cc(C(F)(F)F)nc(C(F)(F)F)c3)CC2)cc1 ? Thanks!
OUT: 6.30 to 7.00

IN: Please report pIC50 for the following molecule: O=C(N[C@H]1CC[C@@H](Nc2cc(C(F)(F)F)nc(Nc3ccccc3)n2)CC1)c1ccc(F)cc1
OUT: 5.60 to 6.00

IN: Quickly give me recorded pIC50 for CC(C)C(=O)Nc1cccc(C(=O)N[C@H]2CC[C@@H](Nc3cc(C(F)(F)F)nc(C(F)(F)F)c3)CC2)c1
OUT: 6.00 to 6.30

IN: Using the record for O=C(N[C@H]1CC[C@@H](Nc2cc(C(F)(F)F)cc(C(F)(F)F)c2)CC1)c1ccccc1 , state its measured pIC50.
OUT: < 5.60

IN: Dear colleague, please send me the reported pIC50 for N#Cc1ccc(N[C@H]2CC[C@@H](NC(=O)c3ccc(NCC(F)F)cc3)CC2)cc1C(F)(F)F when you can.
OUT: > 7.00

IN: Give reported pIC50 value for CC(C#N)c1cccc(C(=O)N[C@H]2CC[C@@H](Nc3cc(C(F)(F)F)nc(C(F)(F)F)c3)CC2)c1 (stereo partly shown)
OUT: 6.30 to 7.00

IN: Supply reported pIC50 belonging to this molecule: COc1ccc(C(=O)NC2CCC(Nc3ccc(C#N)c(C(F)(F)F)c3)CC2)cc1 (stereo not shown)
OUT: 6.30 to 7.00

IN: Consider the molecule CCn1nccc1C(=O)N[C@H]1CC[C@@H](Nc2cc(C)c(C#N)c(C(F)(F)F)c2)CC1 and give its recorded pIC50.
OUT: > 7.00
